- subject of test: T1, control peptide A2E-7/HLA-A*02:01 complex on T2 cells (member of the P19 mixture) (human)
- T1 construct: Loaded on T2 cells as part of the mixture of 19 control peptides
- assay remarks: flow cytometry, phage on T2 cells
outcome measure: binding result

INSERT INTO results (binder, value_measured) VALUES
  ('PSA146/HLA-A*02:01-specific scFv phage clone #18 (scFv, V domains shown) VH: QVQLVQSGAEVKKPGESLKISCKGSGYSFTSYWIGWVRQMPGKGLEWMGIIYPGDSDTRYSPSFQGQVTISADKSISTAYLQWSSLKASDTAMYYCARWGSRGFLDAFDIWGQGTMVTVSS VL: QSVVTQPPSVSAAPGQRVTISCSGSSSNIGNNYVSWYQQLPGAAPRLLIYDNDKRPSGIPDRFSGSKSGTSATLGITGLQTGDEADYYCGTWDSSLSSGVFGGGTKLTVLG', 'no binding'),
  ('PSA146/HLA-A*02:01-specific scFv phage clone #13 (scFv, V domains shown) VH: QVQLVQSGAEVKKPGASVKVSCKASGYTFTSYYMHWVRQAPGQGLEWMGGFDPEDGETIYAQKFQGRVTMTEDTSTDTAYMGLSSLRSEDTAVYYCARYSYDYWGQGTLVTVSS VL: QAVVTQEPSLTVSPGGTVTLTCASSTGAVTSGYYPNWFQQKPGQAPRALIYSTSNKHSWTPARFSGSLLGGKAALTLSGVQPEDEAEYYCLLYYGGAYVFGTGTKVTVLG', 'no binding'),
  ('PSA146/HLA-A*02:01-specific scFv phage clone #6 (scFv, V domains shown) VH: EVQLVQSGAEVKKPGASVKVSCKASGYTFTGYYIHWVRQAPGQGLEWMGGFDPEDGETIYAQKFQDRVTMTADTSTDTAYMELSSLRSEDTAVYYCARYGFDYWGQGTLVTVSS VL: QAVVTQEPSLTVSPGGTVTLTCASSTGAVTSGYYPNWFQLKPGQAPRALIYTTGKKHSWAPARFSGSLLGGKAALTLSGVQPEDEAEYYCLLYSGGVWVFGGGTKLTVLG', 'no binding');
